molecular target: human ether-à-go-go-related gene (hERG) potassium channel (human, UniProt Q12809); experiment: primary screen, population patch clamp on CHO cells stably expressing hERG; higher = less effect of the substance
Sequence (Q12809 whole entry, looked up): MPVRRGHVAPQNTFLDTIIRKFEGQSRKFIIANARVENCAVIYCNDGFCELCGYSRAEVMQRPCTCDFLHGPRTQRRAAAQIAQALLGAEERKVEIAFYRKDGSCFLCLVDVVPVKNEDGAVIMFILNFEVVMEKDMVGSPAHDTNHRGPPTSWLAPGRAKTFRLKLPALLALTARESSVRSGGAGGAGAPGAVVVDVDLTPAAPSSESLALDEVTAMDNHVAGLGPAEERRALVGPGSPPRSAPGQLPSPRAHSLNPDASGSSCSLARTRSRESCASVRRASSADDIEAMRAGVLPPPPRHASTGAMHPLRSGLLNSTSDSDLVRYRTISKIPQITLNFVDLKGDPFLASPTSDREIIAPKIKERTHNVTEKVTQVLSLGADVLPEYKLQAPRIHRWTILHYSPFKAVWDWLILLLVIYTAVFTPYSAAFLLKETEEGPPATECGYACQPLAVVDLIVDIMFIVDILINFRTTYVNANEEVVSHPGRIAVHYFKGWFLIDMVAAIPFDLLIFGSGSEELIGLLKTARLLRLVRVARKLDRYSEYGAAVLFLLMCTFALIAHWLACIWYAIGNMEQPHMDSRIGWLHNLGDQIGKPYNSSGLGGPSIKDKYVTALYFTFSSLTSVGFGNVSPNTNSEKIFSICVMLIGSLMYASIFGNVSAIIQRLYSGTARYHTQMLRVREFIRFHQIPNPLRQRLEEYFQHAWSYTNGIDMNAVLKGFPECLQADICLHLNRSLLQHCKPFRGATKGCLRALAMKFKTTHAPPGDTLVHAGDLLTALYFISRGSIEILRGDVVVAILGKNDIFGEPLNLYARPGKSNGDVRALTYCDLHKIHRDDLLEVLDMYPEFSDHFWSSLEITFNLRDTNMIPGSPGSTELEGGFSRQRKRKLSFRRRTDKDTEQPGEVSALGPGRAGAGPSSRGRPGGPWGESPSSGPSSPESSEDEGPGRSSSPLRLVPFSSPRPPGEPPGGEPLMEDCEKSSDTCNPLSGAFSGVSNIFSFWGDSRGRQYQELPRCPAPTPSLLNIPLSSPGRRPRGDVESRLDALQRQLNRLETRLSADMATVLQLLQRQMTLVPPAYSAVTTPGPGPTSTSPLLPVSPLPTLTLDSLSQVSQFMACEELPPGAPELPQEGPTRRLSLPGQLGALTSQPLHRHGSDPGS
Hit rate of the full screen: of about 310,000 compounds, about 2,200 (0.71%) showed an effect of 50% or more. Effects have a minus sign here. The sample as a whole holds a higher share of strong results than the screen did.
Measured hERG current change (%, negative = inhibition) at 1uM by item
Enter your answer as a number in %; do not include the unit.

INSERT INTO results (compound, targetdesc, observed) VALUES
  ('O=C(Cc1ccc([N+](=O)[O-])cc1)Nc1ccc2c(c1)CCC2', 'human ether-à-go-go-related gene (hERG) potassium channel (human, UniProt Q12809)', 10.4),
  ('CC1(C)CC(NC(=O)C2CCN(S(=O)(=O)c3ccc(F)cc3)CC2)CC(C)(C)N1', 'human ether-à-go-go-related gene (hERG) potassium channel (human, UniProt Q12809)', 16.9),
  ('CCN1CCCC1CN(Cc1cc2ccc(C)cc2[nH]c1=O)C(=S)Nc1cccc(OC)c1 (centres unmarked)', 'human ether-à-go-go-related gene (hERG) potassium channel (human, UniProt Q12809)', -44),
  ('CCn1c(SCC(=O)Nc2nonc2C)nnc1-c1ccoc1C', 'human ether-à-go-go-related gene (hERG) potassium channel (human, UniProt Q12809)', 7.63);

Consider now this further compound.
Query Cc1cccc(-n2c(SCC(=O)NC3CCCC3)nnc2-c2ccoc2C)c1 on human ether-à-go-go-related gene (hERG) potassium channel (human, UniProt Q12809); hERG current change (%, negative = inhibition) at 1uM returned: -68.6

###

molecular target: human ether-à-go-go-related gene (hERG) potassium channel (human); assay: primary screen, population patch clamp on CHO cells stably expressing hERG; higher = less effect of the substance
Out of some 310,000 compounds screened, about 2,200 (0.71%) showed an effect of 50% or more. The effect is printed as a negative number. Many of the other results were omitted from the sample, so strong results are more common in it than they were.
Readings of hERG current change (%, negative = inhibition) at 1uM for the listed molecules
Answers without a unit are incomplete; give the number and then its unit.

INSERT INTO measurements (smilestext, observed) VALUES
  ('COC(=O)c1nc[nH]c1C(=O)OC', '18.4%'),
  ('c1ccc2c(N3CCCCC3)nc(N3CCCCC3)nc2c1', '-3.29%'),
  ('Nc1c(-c2ccc(Cl)cc2)cnc2c(-c3ccccc3)cnn12', '18.5%'),
  ('CCN(c1ccccc1)c1nc(=O)c2cccnc2s1', '5.88%'),
  ('S=C1NNC2(NN1)C1CC3CC(C1)CC2C3', '12.4%'),
  ('O=C(c1ccco1)N1CCN(C(=O)C2CCN(S(=O)(=O)c3cccs3)CC2)CC1', '-26.1%'),
  ('COc1ccc(Nc2nc(N)c(C(=O)c3ccc(OC)cc3)s2)cc1', '-5.28%'),
  ('CC(=O)c1ccc(NC(=S)Nc2cccc(S(=O)(=O)Nc3c(C)n(C)n(-c4ccccc4)c3=O)c2)cc1', '11.4%');

CSc1ccc(CN2CCC(Oc3cccc(C(=O)N4CCCC4)c3)CC2)cc1 has a reported hERG current change (%, negative = inhibition) at 1uM of -36.7%

hERG current change (%, negative = inhibition) at 1uM reported for this molecule Cc1ccc(-n2c(C)cc(C(=O)CSc3nnc4ccccn34)c2C)cc1 : 0.977%

###

// reported hERG current change (%, negative = inhibition) at 1uM per item
target: human ether-à-go-go-related gene (hERG) potassium channel (human, UniProt Q12809); experiment: primary screen, population patch clamp on CHO cells stably expressing hERG; higher = less effect of the substance
Screen size: about 310,000 compounds; about 2,200 (0.71%) showed an effect of 50% or more. The effect is printed as a negative number. The sample as a whole holds a higher share of strong results than the screen did.
# value in %; strip the unit string

Examples from the recorded data:
INSERT INTO measurements (smilestext, observed) VALUES
  ('Cc1cccc2sc(N(CCCN(C)C)C(=O)c3nc4ccccc4s3)nc12.Cl', 3.73),
  ('CC(C)CCN1C(Nc2ccccc2)=NC[C@@H]1Cc1ccccc1', -15),
  ('COc1cc(CCC(=O)N2CCN(c3ccccc3)CC2)cc(OC)c1OC', -0.0932),
  ('CCCCN1C(Nc2ccccc2)=NC[C@@H]1Cc1ccccc1', -44.2);

Reported hERG current change (%, negative = inhibition) at 1uM of CCCCN1C(Nc2ccccc2)=NC[C@@H]1C : 16.3

hERG current change (%, negative = inhibition) at 1uM in this record for CCOC(=O)c1c(NC(=O)Nc2ccc(C)cc2)sc2c1CCN(C)C2 : 9.62

###

biological target: human ether-à-go-go-related gene (hERG) potassium channel (human); test: primary screen, population patch clamp on CHO cells stably expressing hERG; higher = less effect of the substance
In all, about 310,000 compounds went through this assay and about 2,200 (0.71%) showed an effect of 50% or more. Effects have a minus sign here. The entries come from a sample that favours strong results as a whole.
The recorded hERG current change (%, negative = inhibition) at 1uM of each item maps onto one of these classes: lower bin (below -60%), middle bin (-60% to below -30%), upper bin (-30% or more)

INSERT INTO results (molecule, cat) VALUES
  ('Cc1nnc(NCc2n[nH]c(=O)c3ccccc23)c2ccccc12', 'upper bin');

Hey, which category is Cl.Oc1ccc(Nc2nc(N3CCCC3)c3ccccc3n2)cc1 in, do you know? lower bin

Tag the class for CN(CC1CCN(CCc2cccc(C(F)(F)F)c2)CC1)C(=O)c1ccc(F)cc1F middle bin

Just checking, what class would you give CC(=O)Oc1ccc(/C(C)=N/N2CCN(Cc3ccc(C)cc3)CC2)cc1 here? lower bin

Form: Item = CSCCC(=O)N(C)CC1CCCN(CCc2cccc(C(F)(F)F)c2)C1 (centres unmarked) ; Class = ? middle bin

Entry c1ccc(N2CCN(c3nc(-c4ccccn4)nc4ccccc34)CC2)cc1 belongs to which category? upper bin

Hi there! Could you help me figure out the category for CN(CC1CCCN(CCc2cccc(C(F)(F)F)c2)C1)C(=O)c1ccco1 (centres unmarked) please? middle bin

GET /class?item= O=C(NCCCn1ccnc1)/C(=C\c1cccs1)NC(=O)c1cccs1 upper bin

Textbook exercise: identify the category of the molecule given here, O=C(Nc1ccc(C(=O)O)cc1)/C(=C\c1ccc2c(c1)OCO2)NC(=O)c1ccco1 , according to its measured value. upper bin

Entry O=C(NCCCn1ccnc1)/C(=C\c1cccs1)NC(=O)c1ccccc1 belongs to which category? upper bin

GET /class?item= Br.O=C(CN1CCCCC1)c1ccc(OC(F)F)cc1 lower bin

Given COc1ccc(CC(=O)NCC2CCCN(Cc3cccc(C(F)(F)F)c3)C2)cc1 (centres unmarked) , name the class its hERG current change (%, negative = inhibition) at 1uM places it in. upper bin

Place this molecule in its band: CSCCC(=O)N(C)CC1CCN(CCc2cccc(C(F)(F)F)c2)CC1 upper bin

Pick a category. Item: c1ccc(-c2nc(N3CCCCCC3)c3ccccc3n2)nc1 lower bin

Bin? Cc1ccc(C(=O)N/C(=C\c2cccs2)C(=O)NCCCn2ccnc2)cc1C middle bin

Class? Entry: CC1CC(C)CN(CC(=O)c2cccs2)C1 (centres unmarked) upper bin

###

molecular target: human ether-à-go-go-related gene (hERG) potassium channel (human); assay: primary screen, population patch clamp on CHO cells stably expressing hERG; higher = less effect of the substance
About 2,200 (0.71%) of roughly 310,000 compounds showed an effect of 50% or more. Effects have a minus sign here. The list comes from a sample in which strong results are over-represented; it also holds close analogues and randomly drawn compounds.
Here, each record is paired with measured hERG current change (%, negative = inhibition) at 1uM data.
// unit must come after the numeric part

INSERT INTO assay_data (molecule, targetdesc, observed) VALUES
  ('O=C1CC2(CCN(C(=O)c3ccccc3F)CC2)Oc2ccccc21', 'human ether-à-go-go-related gene (hERG) potassium channel (human)', '-47.9%'),
  ('Cc1ccc(N2CCN(CCCN3C(=O)C4CCCN4C3=O)CC2)cc1.Cl (stereo not shown)', 'human ether-à-go-go-related gene (hERG) potassium channel (human)', '4.77%');

Measured hERG current change (%, negative = inhibition) at 1uM, CC(=O)N1CCN(c2nc(-c3ccco3)c3c(c2C#N)CC(C)(C)SC3)CC1 : 7.62%

get_value(item= Cc1c(Cl)cccc1Nc1nc(N)nc(CSC(=S)N2CCOCC2)n1 , readout=hERG current change (%, negative = inhibition) at 1uM) returns 8.31%

###

Quick list: hERG current change (%, negative = inhibition) at 1uM per entry.
biological target: human ether-à-go-go-related gene (hERG) potassium channel (human, UniProt Q12809); test: primary screen, population patch clamp on CHO cells stably expressing hERG; higher = less effect of the substance
About 2,200 (0.71%) of roughly 310,000 compounds showed an effect of 50% or more. Effects have a minus sign here. Only a selection was taken, and strong results are over-represented in it overall.
Please respond with the number in % and leave the unit unwritten.

A selection of reference data follows.
INSERT INTO results (compound, targetdesc, unitabbrev, observed) VALUES
  ('CN1C2CCC1CC(NC(=O)c1ccc([N+](=O)[O-])cc1)C2 (centres unmarked)', 'human ether-à-go-go-related gene (hERG) potassium channel (human, UniProt Q12809)', '%', 12.1),
  ('COCCNC(=S)NC1CC2CCCC(C1)N2Cc1cccs1 (centres unmarked)', 'human ether-à-go-go-related gene (hERG) potassium channel (human, UniProt Q12809)', '%', -1.25),
  ('Oc1ccc(/C=N/N2CCCCC2)cc1O', 'human ether-à-go-go-related gene (hERG) potassium channel (human, UniProt Q12809)', '%', 14.2),
  ('Cn1c(CCN2CCCCC2)nc2cc([N+](=O)[O-])ccc21', 'human ether-à-go-go-related gene (hERG) potassium channel (human, UniProt Q12809)', '%', -54.8),
  ('Cc1nnsc1C(=O)Nc1ccc(S(=O)(=O)N2CCCC(C)C2)cc1 (centres unmarked)', 'human ether-à-go-go-related gene (hERG) potassium channel (human, UniProt Q12809)', '%', 15.2);

// recorded hERG current change (%, negative = inhibition) at 1uM for CCOC(=O)c1cc2[nH]c3ccccc3c2[n+](-c2ccc([N+](=O)[O-])cc2)c1C.[Cl-] : -70.6

// hERG current change (%, negative = inhibition) at 1uM value for O=C(Cn1nnc2ccccc21)N1CCCCC1 : 2.74

Noted for CC(=O)N1CCN(Cc2nc3cc([N+](=O)[O-])ccc3n2C)CC1 : its hERG current change (%, negative = inhibition) at 1uM reads 14

Record COc1cccc(NC(=O)CN2C(=O)COc3ccc(Cl)cc32)c1 , field hERG current change (%, negative = inhibition) at 1uM: 8.19

The compound listed as COc1ccccc1NC(=O)Nc1ccc(N2CCOCC2)cc1 has a reported hERG current change (%, negative = inhibition) at 1uM of 10.4

Sample CCN(CC)CCN1C(=O)Cn2c(C)c(C)c3cccc1c32.Cl ; hERG current change (%, negative = inhibition) at 1uM observed: -12.2

The reported hERG current change (%, negative = inhibition) at 1uM of the compound COCCN(C(=O)CSc1nc2ccccc2c(=O)n1CCOC)c1c(N)n(Cc2ccccc2)c(=O)[nH]c1=O was 12.6
